Item-by-item account of logP
Form field (numeric): enter value without unit.

{"columns": ["molecule", "logP"],
 "data": [
  ["CCCC1COC(Cn2cncn2)(c2ccc(Cl)cc2Cl)O1 (stereo unspecified)", 3.57]
]}

Nc1ccc(Cl)c(Cl)c1 has a reported logP of 2.62

CC(C)(C)N(NC(=O)c1ccccc1)C(=O)c1ccccc1 has a reported logP of 2.43

Cc1cccc2sc3nncn3c12 has a reported logP of 1.42

---

Item-by-item account of logP

// solved cases for logP follow
{"columns": ["compound", "logP"],
 "data": [
  ["CCSC(=O)N(CC(C)C)CC(C)C", 4.1],
  ["c1ccc2ccccc2c1", 3.37],
  ["CC(C)(C)C(O)C(Cc1ccc(Cl)cc1Cl)n1cncn1 (configuration not stated)", 3.69]
]}

O=C(O)COc1ccc(Cl)cc1Cl has a reported logP of 2.66

CCCCC(C#N)(Cn1cncn1)c1ccc(Cl)cc1 (configuration not stated) has a reported logP of 3.06

N#Cc1c(Cl)c(Cl)c(Cl)c(C#N)c1Cl has a reported logP of 2.93
